Some compounds, each annotated with its measured cytotoxicity at 70.5 h.
Assay: Human HepG2 cell viability assay in 384 well format
Type: toxicity, cell-based
Parameters: dose 125 nL, time 70.5 hour; concentration not given beside the values
Conditions: HepG2 cells, read-out: Inhibition
Write the value in % as a bare number.

CC(C)Nc1ncnc2c1CCN(C(=O)c1ccccc1F)CC2 ... -3.35
O=C(CCc1ccccc1Br)NCC(=O)NCc1ccccc1 ... -7.06
CC(C)(C)c1nnc(CN2CCN(C(=O)CC3CCCCC3)CC2)o1 ... -2.8
CN(C)C(=O)c1nc(CN2C(=O)OC[C@@H]2c2ccccc2)no1 ... 15.9
CCCn1ncc(-c2ccnc(N[C@@H]3C[C@@H]4CC[C@H]3C4)n2)c1C ... -2.1
Cc1csc2ncc(-c3ccnc(N4CCCN(C)CC4)n3)c(=O)n12 ... -0.0913
O=C(NCc1ccncc1)C1=NOC2(CCCNC2)C1 (stereo unspecified) ... 14.2
Cc1c(C(=O)N2CCCN(S(C)(=O)=O)CC2)cnn1C ... -3.33

What value of measured cytotoxicity at 70.5 h is listed for Cc1nc2cc(-c3nccn3C)nn2c(N2CCC(O)CC2)c1C ?
-3.32

Same again, this time with COc1ccc(CN2CCc3nc4ccsc4c(=O)n3CC2)c(C)c1C
39.8

Please give the result for NC(=O)C1CCN(CCc2ccc(NCc3ccsc3)cc2)CC1 too.
-11.9

###

Experiment: Human HepG2 cell viability assay in 384 well format
Assay type: toxicity, cell-based
Parameters: dose 125 nL, time 70.5 hour; concentration not given beside the values
Conditions: HepG2 cells, read-out: Inhibition
cytotoxicity at 70.5 h by entry:
Write the number in % without appending the unit.

Example results:
O=C(O)c1ccccc1-n1cnc(CN2CCc3ccccc32)c1 ... -7.59
COc1ccc(Nc2ncccc2C#N)cc1N1CCCC1=O ... 5.71
CCc1nc(C(=O)N(CC)CC(=O)N(C)C)nn1-c1ccccc1Cl ... -2.5
Cc1ccc(CNC(=O)c2ccc(S(=O)(=O)N3C[C@@H]4C[C@H]3CN4)cc2)o1 ... -2.7
Cc1ccc(C(=O)N2C[C@@H]3CN(c4ncccn4)C[C@@H]3C2)cn1 ... -9.68
CCc1ccc2occ(CC(=O)N3CCC4(CCCN(C)C4=O)C3)c2c1 (stereo unspecified) ... -9.34

Looking for the measured cytotoxicity at 70.5 h of CCCN(Cc1ccccn1)Cc1ccccc1OC , can you help?
-6.2

// query: CCN1CCN(c2ccc(CNC(=O)c3ccc(Cl)o3)cn2)CC1
3.11

Ok, now CC(=O)NCC(=O)N1Cc2cnc(CC(C)C)nc2C1
-5.57

Next entry: Cc1nc(NCC2CC2)nc2c1COCC21CCN(S(=O)(=O)C2CC2)C1 (stereo unspecified)
-15.4

Please give the result for COc1cc(OC)c(-c2nc3c([nH]2)c(C2CC2)nn3C)cc1OC too.
-3.1

###

Test: Human HepG2 cell viability assay in 384 well format
Format: toxicity, cell-based
Design: dose 125 nL, time 70.5 hour; concentration not given beside the values
Conditions: HepG2 cells, read-out: Inhibition
property_label: cytotoxicity at 70.5 h (%)
Your answer is read as %, so omit the unit and give the number.

Before answering, review these 4 worked examples.
O=C(N[C@@H]1CCNC[C@H]1O)c1ccc(-c2ccc(F)cc2)cc1 ... -1.9
C[C@@H]1CN(C(=O)CSc2nncn2C)C[C@@]1(O)C1CC1 ... -4.21
Cc1csc(CNC(=O)N2CCCC(c3nncn3C)C2)n1 (stereo not drawn) ... -4.57
CC(C)=CCN1CCN(C(C)c2cccnc2)CC1 (stereo not drawn) ... -1.42

Looking for the measured cytotoxicity at 70.5 h of CCc1nn(C)c(Cl)c1CN1CCCC2(C1)CN(C)C(=O)O2 (stereo not drawn) , can you help?
-11.8

Now consider O=C1CCC2(CCN(Cc3nccs3)CC2)CN1CCCO .
-6.67

Would you mind doing O=c1cc(CN2CC[C@H]3CC[C@@H](C2)N3)c2cccc3c2n1CCC3 as well?
-14.4

Input O=C1CN(Cc2ccc(-c3ccccc3C(=O)O)cc2)CCN1
37.1

Ok, now O=C(O)c1nnn(-c2ccc(OC(F)(F)F)cc2)c1-c1ccncc1
-10.5

Where do the numbers come from? From ChEMBL document CHEMBL3507680.
